Tested on: NCI-H460 lung
testProtocol: NCI-60 one-dose screen, 48 h
conditionLabel: 10 µM unless noted
This is part of a sample that, as a whole, favours compounds with a hit. Of some 83,000 tested, about 20% had one in any assay. Activity calls are given as the source filed them. How the source made its calls: active means growth percent below 10; inactive means the rest.
Pick one and only one: active, inactive

CC(=O)CC(C)(C)c1ccc(Cl)cc1: inactive
COc1ccc2nc3cc(Cl)ccc3c(N3CCN(c4nccc(Nc5ccc(Cl)cc5)n4)CC3)c2c1: inactive
Clc1cccc(Nc2nc(Nc3cnc4ccccc4c3)c3[nH]cnc3n2)c1: inactive

What did the test return for C/C(Cc1ccc(Cl)cc1)=C(\c1ccc(OCCN2CCCCCC2)cc1)c1ccc(OC(=O)Cc2ccccc2)cc1 ? inactive

What did the test return for CS(=O)(=O)c1ccc(-c2cnc3ccc(-c4cccc(S(C)(=O)=O)c4)nn23)cc1 ? inactive
